Test: qHTS of pediatric cancer cell lines to identify multiple opportunities for drug repurposing: Primary screen for MG 63 (6-TG R) cells (AID 1347105); also: nearly all actives have a fitted effect of over 50% in size
Conditions: MG 63 (6-TG R) viability, CellTiter-Glo, 48 h; series mostly up to 46 µM
Records with an inconclusive call do not appear. Activity calls are given as the source filed them. Calls follow the shape of the dose curve; as a rule, active = well fitted cell-killing curve with a large enough effect; inconclusive = small, poorly fitted or top-dose-only effect; inactive = no such curve, though single readings can be large or run the other way.
Valid outcomes are listed here; reply with one: YES (active), NO (inactive)

// known answers, use as guide
Compound | Category Label
CS(=O)c1ccc(-c2nc(-c3ccc(F)cc3)c(-c3ccncc3)[nH]2)cc1 (stereo not given) | NO
COc1cc(O)c2c(c1)C(=O)c1cc(C)cc(O)c1C2=O | NO
CC1(C)Cc2c(sc(NC(=S)NC(=O)c3ccccc3)c2C(=O)O)CO1 | NO
CCN1CCC[C@H]1CNC(=O)c1cc(S(N)(=O)=O)ccc1OC | NO
O=C(NCCN1CCOCC1)c1ccc(Cl)cc1 | NO

Query block: Please indicate how the test categorized `CN(C)c1cc(NC(=O)CNC(C)(C)C)c(O)c2c1C[C@@H]1C[C@H]3[C@H](N(C)C)C(=O)C(C(N)=O)=C(O)[C@@]3(O)C(=O)C1=C2O` .
Result block: NO

Query block: # lookup: test call for COc1ccc2c3c1OC1C[C@@H](O)C=C[C@@]31CCN(C)C2 (stereo not given in full)
Result block: NO

Query block: Please state the recorded outcome for this compound: CCOC1OC(=O)C[C@H]1NC(=O)[C@@H]1CCCN1C(=O)[C@@H](NC(=O)c1ccc(N)c(Cl)c1)C(C)(C)C (stereo not given in full)
Result block: NO

Query block: Fill in: this test's call for `Cc1ccc(F)c(NC(=O)Nc2ccc(-c3cccc4[nH]nc(N)c34)cc2)c1` is ___
Result block: NO

Query block: Check the results log: what was the call for `Nc1ncnc2c1nc(Cl)n2[C@@H]1O[C@H](CO)[C@@H](O)[C@@H]1O` ?
Result block: YES

###

Assay: qHTS Screen of the MIPE 4.0 Collection Against Ewings Sarcoma (TC32) (AID 1259256); also: nearly all actives have a fitted effect of over 45% in size
Settings: TC32 Ewing sarcoma viability, CellTiter-Glo, 48 h; series mostly up to 45.8 µM
Records with an inconclusive call do not appear. Calls of active or inactive are those of the source. Calls come from the whole dose curve; as a rule, active = well fitted inhibition curve with a large enough effect; inconclusive = small, poorly fitted or top-dose-only effect; inactive = no such curve, though single readings can be large or run the other way.
Select the matching outcome among Yes = active, No = inactive

Molecule | Category Label
O=C(NC1CCOCC1)c1ccc(-c2cc(-c3cn[nH]c3-c3ccccn3)ccn2)cc1 | No

Query block: In this assay, the call recorded for `Oc1ccc(C2=Cc3ccc(O)cc3OC2)cc1` was what?
Result block: Yes

Query block: Dear colleague, could you share the recorded outcome for CCOC(=O)C1=C(N)Oc2ccc(Br)cc2C1C(C#N)C(=O)OCC (stereo not given) when you have a moment?
Result block: Yes

Query block: Which outcome was assigned to `O=C(O)c1ccc(-c2c[nH]c3ncc(-c4ccccc4)cc23)cc1C1CCCC1` in this test?
Result block: No

Query block: Hi, sorry to bother you, what did the test record for `CC(=O)N(C)C1(c2ccccc2)CCN(CCC[C@]2(c3ccc(Cl)c(Cl)c3)CCCN(C(=O)c3ccccc3)C2)CC1` ?
Result block: Yes

Query block: I would be grateful if you could indicate the recorded call for `CO[C@H]1C(=O)[C@]2(C)[C@@H](OC)C[C@H]3OC[C@@]3(OC(C)=O)[C@H]2[C@H](OC(=O)c2ccccc2)[C@]2(O)C[C@H](OC(=O)[C@H](O)[C@@H](NC(=O)OC(C)(C)C)c3ccccc3)C(C)=C1C2(C)C` .
Result block: No

Query block: Record request — test call for `NS(=O)(=O)c1cccc2c1C(=O)c1cccc(O)c1C2=O`
Result block: Yes

Query block: Entry COC1CCC(N(C(=O)C2CCC(C)CC2)c2cc(C3=CCCCC3)sc2C(=O)O)CC1 (stereo not given) : call = ?
Result block: No

Query block: Returns: the outcome recorded for `CC[C@@]1(O)C[C@H](O[C@H]2C[C@H](N(C)C)[C@H](O[C@H]3C[C@H](O)[C@H](O[C@H]4CCC(=O)[C@H](C)O4)[C@H](C)O3)[C@H](C)O2)c2c(cc3c(c2O)C(=O)c2c(O)cccc2C3=O)[C@@H]1C(=O)OC` in this assay.
Result block: No

Query block: I'd appreciate the recorded outcome for `Cn1cc(C=C2C(=O)Nc3cccnc32)c2ccccc21` from this test.
Result block: No
